# Experimental Target: CDK7/Cyclin H/MAT-1 complex (Homo sapiens, UniProt P50613)
# Construct: Human CDK7 (amino acids 1-346); His6 (N); TEV protease cleavage site (N); made in house; host or cells: baculovirus-SF9 insect cells
# Sequence (P50613 whole entry, the tested form may be a part): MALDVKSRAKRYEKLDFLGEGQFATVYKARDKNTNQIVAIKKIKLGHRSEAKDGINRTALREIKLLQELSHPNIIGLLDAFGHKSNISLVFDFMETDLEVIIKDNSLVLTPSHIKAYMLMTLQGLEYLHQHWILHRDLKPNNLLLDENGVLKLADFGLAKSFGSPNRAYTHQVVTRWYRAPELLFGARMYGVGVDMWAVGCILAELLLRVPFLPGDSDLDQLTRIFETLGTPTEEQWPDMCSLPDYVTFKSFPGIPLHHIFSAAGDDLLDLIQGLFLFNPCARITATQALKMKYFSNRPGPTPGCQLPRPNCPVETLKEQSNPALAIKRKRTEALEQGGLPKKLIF
# Sequence (P51946 whole entry partner, the tested form may be a part): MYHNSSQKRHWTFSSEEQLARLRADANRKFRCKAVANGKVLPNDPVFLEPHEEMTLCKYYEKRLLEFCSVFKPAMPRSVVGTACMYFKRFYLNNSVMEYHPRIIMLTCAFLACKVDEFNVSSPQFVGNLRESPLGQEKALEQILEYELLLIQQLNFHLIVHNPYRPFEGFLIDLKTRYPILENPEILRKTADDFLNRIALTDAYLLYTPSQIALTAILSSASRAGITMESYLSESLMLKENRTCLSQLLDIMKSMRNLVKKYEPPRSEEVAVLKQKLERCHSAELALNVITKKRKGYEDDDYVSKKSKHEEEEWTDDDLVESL
# Sequence (P51948 whole entry partner, the tested form may be a part): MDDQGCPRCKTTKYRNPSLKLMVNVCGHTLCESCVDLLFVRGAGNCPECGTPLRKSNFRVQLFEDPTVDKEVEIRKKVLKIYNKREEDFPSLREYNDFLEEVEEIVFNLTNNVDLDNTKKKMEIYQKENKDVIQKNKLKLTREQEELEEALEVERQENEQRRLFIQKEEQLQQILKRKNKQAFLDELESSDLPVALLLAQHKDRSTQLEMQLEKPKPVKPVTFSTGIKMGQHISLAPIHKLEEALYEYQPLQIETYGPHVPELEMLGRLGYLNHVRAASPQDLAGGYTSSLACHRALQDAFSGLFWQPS
# Test Summary: Absorbance kinetic assay (20 nM CDK7/Cyclin H/MAT-1 complex)
# Format: biochemical
# Protocol: Human CDK7 (amino acids 1-346) containing an N-terminal His6-tag followed by a tobacco etch virus (TEV) protease cleavage site, human MAT1 (amino acids 1-309) and human cyclin H (amino acids 1-323) were co-expressed in the baculovirus-SF9 insect cell expression system to generate a trimeric complex. […] Absorbance Kinetic Assay (20 nM CDK7/Cyclin H/MAT-1 Complex) […] Absorbance at 340 nm was followed kinetically at an interval of 2 minutes for 8 hours. […]
Measured CDK7 (20 nM) pIC50 accompanies every entry in the list below.
// print number alone

C[C@@H]1Cc2cnc(NCC3CCS(=O)(=O)C3)nc2CN1C(=O)[C@H]1CCN(C)C[C@@H]1c1ccccc1 (stereo partly shown) | 6.62

(Q) Would you kindly share the measured CDK7 (20 nM) pIC50 for C[C@@H]1Cc2cnc(NCc3c(F)cccc3F)nc2CN1C(=O)[C@H]1CCN(C)C[C@@H]1c1ccccc1 ?
(A) 7.9

(Q) Would you kindly share the measured CDK7 (20 nM) pIC50 for C[C@@H]1Cc2cnc(NC(C)(C)c3cnn(C)c3)nc2CN1C(=O)[C@H]1CCN(C)C[C@@H]1c1ccccc1 ?
(A) 7.43

(Q) Would you kindly share the measured CDK7 (20 nM) pIC50 for C[C@@H]1Cc2cnc(NCC3CCOC3)nc2CN1C(=O)[C@H]1CCN(C)C[C@@H]1c1ccccc1 (stereo partly shown) ?
(A) 7.85

Every entry's value here was drawn from patent US12679839B2.
